- Test system: MDA-MB-468 breast
- protocol_details: NCI-60 one-dose screen, 48 h
- experimental_parameters: 10 µM unless noted
Compounds without any hit were thinned out: in the full panel of roughly 83,000, 20% have a hit. Activity calls are given as the source filed them. Rule for the calls: active = growth percent below 10; inactive = the rest.
Choose the fitting class; nothing outside active, inactive is accepted.

Answered examples (5):
molecule	class_name
Cc1cc(C)c(-c2cc(O)c(-c3c(C)cc(C)cc3C)cc2O)c(C)c1	active
CCOC(=O)n1cc(C2=C(c3cn(C)c4ccccc34)COC2=O)c2ccccc21	inactive
CCOP(=O)(OCC)OC[C@]12CCC(C)(C)CC1C1=CC[C@@H]3[C@@]4(C)CCCNC(C)(C)[C@@H]4CC[C@@]3(C)[C@]1(C)CC2 (some centres undefined)	inactive
COC(=O)c1c(C(=O)OC)c2ccc3c4ncccc4ccc3n2c1C(=O)c1ccc(C)cc1	inactive
COc1ccc(-c2n[nH]nc2-c2cc(OC)c3c(c2OC)OCO3)cc1	active

Kindly provide the recorded test outcome for the following molecule: CNc1nc2ncn(C)c2c(=O)[nH]1
inactive

Kindly provide the recorded test outcome for the following molecule: COc1ccc(/C=C/c2c(C(=O)/C=C/c3cccs3)c(C)nc3ccccc23)cc1
inactive

Kindly provide the recorded test outcome for the following molecule: CCN(CC)CCOc1ccc2ccc(=O)oc2c1
inactive

Kindly provide the recorded test outcome for the following molecule: C=C(C)[C@@H]1CCC[C@]2(C(=O)N3CCN(C)CC3)CC[C@]3(C)[C@@H](CC[C@@H]4[C@@]5(C)CC/C(=N\NC(=O)c6ccncc6)C(C)(C)[C@@H]5CC[C@]43C)[C@@H]12
inactive

---

- Test system: MDA-MB-468 breast
- protocol_details: NCI-60 one-dose screen, 48 h (100 = growth as untreated, 0 = no growth, -100 = all killed)
- experimental_parameters: 10 µM unless noted
This is part of a sample that, as a whole, favours compounds with a hit. Of some 83,000 tested, about 20% had one in any assay.
Label met when growth < 60%; otherwise not met.

Answered examples (5):
compound	target_or_system	class_name
COc1ccc(-c2nc(S(=O)(=O)c3ccccc3)c(S(=O)CC(=O)N3CCC(C)CC3)o2)cc1 (stereo not given)	MDA-MB-468 breast	met
O=C(c1c[nH]c(=O)c(-c2ccccc2)c1)c1ccccc1O	MDA-MB-468 breast	not met
COc1cc(Oc2cc(-c3cccnc3)ccc2NC(=O)Nc2ccc(F)cc2F)cc(OC)c1OC	MDA-MB-468 breast	not met
O=c1[nH]c2ccc(Cl)cc2cc1CSc1ccccc1Nc1nccc(-c2ccc(Cl)cc2)n1	MDA-MB-468 breast	not met
CC(C)CCSc1nc(NNC(N)=O)c(C#N)c(-c2ccccc2)n1	MDA-MB-468 breast	not met

I'd appreciate it if you could check whether Cc1ccc(S(=O)(=O)N(CCc2ccc(Cl)cc2)S(=O)(=O)c2ccc(C)cc2)cc1 has growth smaller than 60%.
not met

I'd appreciate it if you could check whether N#CC1=C(N)Oc2c(ccc3ccccc23)C1c1cc(=O)oc2ccc(Cl)cc12 (stereo not given) has growth smaller than 60%.
not met

---

- Tested on: MDA-MB-468 breast
- protocol_details: NCI-60 one-dose screen, 48 h (100 = growth as untreated, 0 = no growth, -100 = all killed)
- experimental_parameters: 10 µM unless noted
Compounds without any hit were thinned out: in the full panel of roughly 83,000, 20% have a hit.
Recorded growth by entry
Enter your answer as a number in %; do not include the unit.

compound	target_or_system	measurement_name	reported_measurement
Oc1ccc(/C=N/N=C2c3ccccc3-c3ccccc32)c(O)c1	MDA-MB-468 breast	growth	-1.47
COc1ccc(C2C=C(c3ccc(Cl)c(Cl)c3)N=C3SC(C)=CN32)cc1OC (stereo unspecified)	MDA-MB-468 breast	growth	53.1
N=C(N)c1ccc(OCCCCCCCCCCOc2ccc(C(=N)N)cc2)cc1	MDA-MB-468 breast	growth	-75.6
CN(C)CCCn1c(=O)c2ccccc2c2ccccc21	MDA-MB-468 breast	growth	66
CC(=O)OCCC(C)CCC=C(C)C (stereo unspecified)	MDA-MB-468 breast	growth	122

As a next step, examine the compound that follows.
So what does the record say about growth for O=C1NC(=O)C(=Cc2cc(-c3ccc(Cl)cc3)n(-c3ccccc3)n2)C(=O)N1 ?
87.3

---

- System: MDA-MB-468 breast
- protocol_details: NCI-60 one-dose screen, 48 h
- experimental_parameters: 10 µM unless noted
About 83,000 compounds went through this panel and 20% of them were active in at least one assay; those are over-represented in the sample as a whole. Calls of active or inactive are those of the source. How the source made its calls: active means growth percent below 10; inactive means the rest.
Choose the fitting class; nothing outside TRUE (active), FALSE (inactive) is accepted.

Answered examples (2):
compound	target_or_system	class_name
O=C(Nc1cccc(C(F)(F)F)c1)Nc1cccc(C(F)(F)F)c1	MDA-MB-468 breast	TRUE
O=C(CN1CCN(c2cc3c(cc2F)c(=O)c(C(=O)O)cn3C2CC2)CC1)Nc1cc(=O)[nH]c(=O)[nH]1	MDA-MB-468 breast	FALSE

Kindly provide the recorded test outcome for the following compound: CCN1C(=O)/C(=C/N2N=C(c3ccc(Cl)cc3)CC2c2ccc(OC)cc2)SC1=S (centres undefined)
FALSE

Kindly provide the recorded test outcome for the following compound: CCCCCCCCCCCCCCCC[N+](C)(CCO)Cc1cnc[nH]1 (centres undefined)
TRUE

Kindly provide the recorded test outcome for the following compound: O=[N+]([O-])c1ccc(NC(=S)NNC(=S)Nc2ccc(Br)cc2)cc1
FALSE

Kindly provide the recorded test outcome for the following compound: C=C(C)[C@@H]1CC[C@]2(c3ncc(C)o3)CC[C@]3(C)[C@H](CC[C@@H]4[C@@](C)(CCC#N)[C@H](C(=C)C)CC[C@]43C)[C@@H]12
TRUE

Kindly provide the recorded test outcome for the following compound: COc1ccc(C(=S)N2CCN(c3ccc(Cl)cc3)CC2)cc1
FALSE

Kindly provide the recorded test outcome for the following compound: CCCCOCc1cc(CN2CCN(C)CC2)c(O)c2ncccc12
FALSE

Kindly provide the recorded test outcome for the following compound: Nc1c(C(=O)Nc2ccccc2)sc2nc3c(cc12)CN(C(=O)OCc1ccccc1)CC3
FALSE

---

- Test system: MDA-MB-468 breast
- protocol_details: NCI-60 one-dose screen, 48 h (100 = growth as untreated, 0 = no growth, -100 = all killed)
- experimental_parameters: 10 µM unless noted
- Procedure: Growth inhibition of the MDA-MB-468 human Breast tumor cell line is measured as a screen for anti-cancer activity. Cells are grown in 96 well plates and exposed to the test compound for 48 hours. Compounds are tested at a single concentration, which is 10^-5 M for most compounds. The reported endpoint is percent growth (GI% or GIPRCNT), where numbers from 0 - 100% represent growth inhibition, and numbers from -100% - 0 represent cell death. […]
About 83,000 compounds went through this panel and 20% of them were active in at least one assay; those are over-represented in the sample as a whole.
// label 0 strictly below 20% in growth; label 1 otherwise

compound	class_name
N#C/C(=C\c1ccc2c(c1)OCO2)n1nnc2ccccc21	label 0
O=C1NC(=O)C(c2ccccc2)O1 (stereo unspecified)	label 1

Has COc1cccc(-c2nn(-c3ccccc3)cc2-c2ccnc(NCCNC(=O)Nc3cccc(C(F)(F)F)c3)c2)c1 a recorded growth greater than or equal to 20%?
label 0

Has Nc1ccc2ccc(N)cc2c1 a recorded growth greater than or equal to 20%?
label 1

Has Cc1ccc2nc3nc4ccc[nH]c4cc3c2c1 a recorded growth greater than or equal to 20%?
label 0

Has C=CCN1C(=O)/C(=c2\sc3n(c2=O)C2C(NN=3)N(CC)C(=O)N2CC)c2ccccc21 (stereo unspecified) a recorded growth greater than or equal to 20%?
label 0

---

- Tested on: OVCAR-3 ovarian
- protocol_details: NCI-60 one-dose screen, 48 h (100 = growth as untreated, 0 = no growth, -100 = all killed)
- experimental_parameters: 10 µM
This is part of a sample that, as a whole, favours compounds with a hit. Of some 83,000 tested, about 20% had one in any assay. The source made the active and inactive calls. How the source made its calls: active means growth percent below 10; inactive means the rest.
measurement_name: growth

// worked examples, growth included
compound	measurement_name	reported_measurement
CC1(C)CC(=O)C2=C(C1)N(Cc1ccc(C(=O)O)cc1)C1=C(C(=O)CC(C)(C)C1)C2c1ccc(Cl)cc1	growth	112% (inactive)
COc1cccc(O)c1/C=C1\SCc2cc3c(OC)cccc3[o+]c21	growth	108% (inactive)
Cn1cc(-c2nnc(N)nc2-c2c[nH]c3ccccc23)c2cc(Br)cnc21	growth	65.1% (inactive)

Hi! What's the reported growth for COc1ccc(-n2c(SCC(=O)NNS(=O)(=O)c3ccccc3)nc3ccc(Cl)cc3c2=O)cc1 on OVCAR-3 ovarian?
105% (inactive)

Hi! What's the reported growth for O=C(CN1CCN(c2ncnc3c2cnn3-c2ccccc2)CC1)Nc1ccc(Br)cc1 on OVCAR-3 ovarian?
60.6% (inactive)

Hi! What's the reported growth for COc1ccccc1-n1cc(C#N)c(N)c1C(=O)c1ccc(Cl)cc1Cl on OVCAR-3 ovarian?
17.8% (inactive)

Hi! What's the reported growth for O=[N+]([O-])c1cccc(-c2nnc3c(/C=C/c4ccccc4O)nc4ccccc4n23)c1 on OVCAR-3 ovarian?
69.1% (inactive)

Hi! What's the reported growth for COc1ccc(C2c3sc4ccc(C)cc4c3Oc3nc[nH]c(=O)c32)cc1 (centres undefined) on OVCAR-3 ovarian?
89% (inactive)

Hi! What's the reported growth for COc1ccc(NCc2cn(-c3ccc(C(=O)O)cc3)nc2-c2ccc(F)cc2)cc1C(F)(F)F on OVCAR-3 ovarian?
53.4% (inactive)
